- Run description: Pharmacokinetics of esketamine nasal spray, 14 Phase 1 studies (Example 10)
- Condition parameters: human, plasma, inhaled or intranasal, 84 mg
Recorded metric: AUC

*Q* Request the reported AUC associated with CN[C@]1(c2ccccc2Cl)CCCCC1=O [esketamine]
*A* 310 to 489 ng·h/mL

====

- Run description: Pharmacokinetics of esketamine nasal spray, 14 Phase 1 studies (Example 10)
- Condition parameters: human, plasma, inhaled or intranasal, 28 mg
Recorded metric: AUC

*Q* Request the reported AUC associated with CN[C@]1(c2ccccc2Cl)CCCCC1=O
*A* 128 to 183 ng·h/mL

Recorded values, source patent US11707440B2.
